Tested on: tRNA
Protocol: Aminoacylation assay (tRNA charging)
Assay type: biochemical
Measurement parameters: nsAA pAzF
Quick reference for kcat among some molecules
Property: kcat

INSERT INTO results (molecule, result) VALUES
  ('pAzFRS.1.t1: pAcFRS variant D158V, I159M, L162D, A167Y, R257G, SEQ ID NO: 11 (protein) MDEFEMIKRNTSEIISEEELREVLKKDEKSALIGFEPSGKIHLGHYLQIKKMIDLQNAGFDIIILLADLHAYLNQKGELDEIRKIGDYNKKVFEAMGLKAKYVYGSEFQLDKDYTLNVYRLALKTTLKRARRSMELIAREDENPKVAEVIYPIMQVNVMHYDGVDVYVGGMEQRKIHMLARELLPKKVVCIHNPVLTGLDGEGKMSSSKGNFIAVDDSPEEIRAKIKKAYCPAGVVEGNPIMMEIAKYFLEYPLTIKGPEKFGGDLTVNSYEELESLFKNKELHPMRLKNAVAEELIKILEPIRKRL', '0.49 ± 0.17 ×10^−3 s^−1'),
  ('pAcFRS.2.t1: pAcFRS variant L65V, A167D, R257G, SEQ ID NO: 8 (protein) MDEFEMIKRNTSEIISEEELREVLKKDEKSALIGFEPSGKIHLGHYLQIKKMIDLQNAGFDIIIVLADLHAYLNQKGELDEIRKIGDYNKKVFEAMGLKAKYVYGSEFQLDKDYTLNVYRLALKTTLKRARRSMELIAREDENPKVAEVIYPIMQVNGCHYRGVDVDVGGMEQRKIHMLARELLPKKVVCIHNPVLTGLDGEGKMSSSKGNFIAVDDSPEEIRAKIKKAYCPAGVVEGNPIMEIAKYFLEYPLTIKGPEKFGGDLTVNSYEELESLFKNKELHPMRLKNAVAEELIKILEPIRKRL', '0.22 ± 0.05 ×10^−3 s^−1'),
  ('pAcFRS.1.t1: pAcFRS variant A167D, R257G, SEQ ID NO: 5 (protein) MDEFEMIKRNTSEIISEEELREVLKKDEKSALIGFEPSGKIHLGHYLQIKKMIDLQNAGFDIIILLADLHAYLNQKGELDEIRKIGDYNKKVFEAMGLKAKYVYGSEFQLDKDYTLNVYRLALKTTLKRARRSMELIAREDENPKVAEVIYPIMQVNGCHYRGVDVDVGGMEQRKIHMLARELLPKKVVCIHNPVLTGLDGEGKMSSSKGNFIAVDDSPEEIRAKIKKAYCPAGVVEGNPIMEIAKYFLEYPLTIKGPEKFGGDLTVNSYEELESLFKNKELHPMRLKNAVAEELIKILEPIRKRL', '0.63 ± 0.12 ×10^−3 s^−1');
